Each item that follows carries a reported viability, T/C.
# System: 485368-065-R4-J2-PDC spheroids with HUVEC/MSC, viability;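 further: spheroids exposed to compounds for seven days before readout; 100% = DMSO vehicle control wells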
# method: Anticancer human tumor 485368-065-R4-J2-PDC patient-derived pancreatic carcinoma cell line growth inhibition [TAK]
# experimentalContext: second compound 9.49 µM; first compound 0.01 µM; active compounds read low
Supply the numeric figure in %, leaving out any unit text.

compound	targetDesc	reportedMeasurement
CC(C)n1nc(-c2ccc3oc(N)nc3c2)c2c(N)ncnc21 + CC(C)NCC(C(=O)N1CCN(c2ncnc3c2C(C)CC3O)CC1)c1ccc(Cl)cc1	485368-065-R4-J2-PDC spheroids with HUVEC/MSC, viability	49.4
CC(C)CC(NC(=O)C(Cc1ccccc1)NC(=O)c1cnccn1)B(O)O (stereo not given) + CC(C)NCC(C(=O)N1CCN(c2ncnc3c2C(C)CC3O)CC1)c1ccc(Cl)cc1	485368-065-R4-J2-PDC spheroids with HUVEC/MSC, viability	8.65
CC(C)CC(NC(=O)CNC(=O)c1cc(Cl)ccc1Cl)B1OC(=O)CC(CC(=O)O)(C(=O)O)O1 (stereo not given) + CC(C)NCC(C(=O)N1CCN(c2ncnc3c2C(C)CC3O)CC1)c1ccc(Cl)cc1	485368-065-R4-J2-PDC spheroids with HUVEC/MSC, viability	92.6
COc1c(OCCCN2CCOCC2)ccc2c3n(c(=NC(=O)c4cnc(N)nc4)nc12)CCN3 + CC(C)NCC(C(=O)N1CCN(c2ncnc3c2C(C)CC3O)CC1)c1ccc(Cl)cc1	485368-065-R4-J2-PDC spheroids with HUVEC/MSC, viability	72.8

API: the following record is the query input.
Query string: If you can, please state the reported viability, T/C value of COC1CC2CCC(C)C(O)(O2)C(=O)C(=O)N2CCCCC2C(=O)OC(C(C)CC2CCC(OCCO)C(OC)C2)CC(=O)C(C)C=C(C)C(O)C(OC)C(=O)C(C)CC(C)C=CC=CC=C1C (stereo not given) + CC(C)NCC(C(=O)N1CCN(c2ncnc3c2C(C)CC3O)CC1)c1ccc(Cl)cc1 .
Result string: 71.4
